B1: HDV Ribozyme (parent)
chain: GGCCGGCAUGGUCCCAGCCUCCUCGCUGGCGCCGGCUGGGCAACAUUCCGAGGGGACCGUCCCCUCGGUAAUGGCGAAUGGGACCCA

Variants of: B1
Assay: self-cleavage, relative activity (ratio to wild type); higher = more cleavage; co-transcriptional
Assign self-cleavage to each entry below.
Field format: numeric only.

May I ask what self-cleavage has been recorded for U12A C21A ?
0.0678

Lookup C24A C26A
0.743

Lookup G17C A56U
0.427

Lookup G17A A77C
0.0978

Lookup C26G C33A
0.298

Lookup C3U U79A
0.591

Lookup G25A C66A
0.287

Lookup C36G C85A
0.251

Lookup G28U C84G
0.13

Lookup U12C C48U
0.534

Lookup U37C G74A
0.196

Lookup A16G U46A
0.646

Where do the numbers come from? From the RNAGym collection of RNA variant scans (doi:10.7554/elife.80360).
